- System: CCRF-CEM
- assaySummary: Anti-HIV activity against HIV-1 infected CEM/0 cell lines.
- Type: functional, cell-based
- testContext: Homo sapiens
assayReadout: EC50 (µM)
Answers are plain numbers, in µM.

CSCO[C@@]1(C)CO[C@@](C)(CC(=O)OC[C@H]2O[C@@H](n3cc(C)c(=O)[nH]c3=O)C[C@@H]2O)C1; 200
CSCO[C@@]1(C)CO[C@](C)(CC(=O)OC[C@H]2O[C@@H](N3C=C(C)CNC3=O)C[C@@H]2O)C1; 6

query: Item CSCOC1(C)COC(C)(CC(=O)OC[C@H]2O[C@@H](n3cc(C)c(=O)[nH]c3=O)C[C@@H]2N=[N+]=[N-])C1 (stereo not given in full) has what recorded EC50?
result: 0.2

* * *

Would you mind telling me the reported pEC50 of each entry?
- Tested on: MT2
- assaySummary: Anti-HIV activity against HIV-2 infected MT2 cell lines
- Format: functional, cell-based, Homo sapiens
- testContext: mt2
Answers are plain numbers, as −log10 of the molar value.

Cc1cn([C@H]2C[C@H](O[Si](C)(C)C(C)(C)C)[C@@H](COC(=O)CC3(C)CC(C)(O)CO3)O2)c(=O)[nH]c1=O (stereo in doubt; form 2); 5.00
Cc1cn([C@H]2C[C@H](N=[N+]=[N-])[C@@H](COC(=O)CC3(C)CC(C)(O)CO3)O2)c(=O)[nH]c1=O (stereo in doubt; form 2); 5.40

Consider now this further molecule.
query: Item Cc1cn([C@H]2C[C@H](N=[N+]=[N-])[C@@H](COC(=O)CC3(C)CC(C)(O)CO3)O2)c(=O)[nH]c1=O (stereo in doubt; form 1) has what recorded pEC50?
result: 7.19

* * *

- Test system: MT2
- assaySummary: Concentration required to reduce cell viability of MT2 cells by 50%
- Type: functional
- testContext: Homo sapiens
Would you mind telling me the reported CC50 of each entry?

Some compounds with recorded CC50:
CSCOC1(C)COC(C)(CC(=O)NC[C@@H]2C=C[C@H](n3cc(C)c(=O)[nH]c3=O)O2)C1 (some centres undefined); > 1000 µM
Cc1cn([C@H]2C[C@H](O[Si](C)(C)C(C)(C)C)[C@@H](COC(=O)CC3(C)CC(C)(O)CO3)O2)c(=O)[nH]c1=O (stereo in doubt; form 1); 200 µM
Cc1cn([C@H]2C=C[C@@H](CNC(=O)CC3(C)CC(C)(O)CO3)O2)c(=O)[nH]c1=O (stereo in doubt; form 1); > 500 µM

Consider now this further compound.
query: Item `Cc1cn([C@H]2C[C@H](O)[C@@H](COC(=O)C[C@@]3(C)C[C@@](C)(O)CO3)O2)c(=O)[nH]c1=O` has what recorded CC50?
result: > 1000 µM
